# TARGET_OR_TEST_SYSTEM: SARS-CoV-2 3CLpro (Severe acute respiratory syndrome coronavirus 2)
# PROCEDURE_SUMMARY: ED-FRET protease assay with SARS-CoV-2 3CLpro (DABCYL-[…]-EDANS IQF peptide substrate)
# Assay type: biochemical
# RECORDED_CONDITIONS: IC50, relative 3CLpro activity, 0.25 μM SARS-CoV-2 3CLpro and 2.5 μM IQF peptide substrate
VALUE_TYPE: IC50 (µM)
Hi! Could you send only the number? It should be in µM, unit omitted.

What does the record list as IC50 for C=C(CC[C@@H](C(=O)O)[C@H]1C[C@H](OC(C)=O)[C@@]2(C)C3=C(CC[C@]12C)[C@@]1(C)CC[C@H](O)C(C)(C)[C@@H]1CC3)C(C)C [AR101 DS3] ?
11.1

###

Provide the recorded pIC50 for the entries that follow.
# TARGET_OR_TEST_SYSTEM: SARS-CoV-2 3CLpro (Severe acute respiratory syndrome coronavirus 2, UniProt P0DTD1)
# PROCEDURE_SUMMARY: ED-FRET protease assay with SARS-CoV-2 3CLpro (DABCYL-[…]-EDANS IQF peptide substrate)
# Type: biochemical
# RECORDED_CONDITIONS: IC50, relative 3CLpro activity, 0.125 μM SARS-CoV-2 3CLpro and 1.25 μM IQF peptide substrate (0.125p/1.25FP)
Conceptually, pIC50 converts a concentration in mol/L into minus its log10.

Can you look up the measured pIC50 of C=C(CC[C@@H](C(=O)O)[C@H]1C[C@H](OC(C)=O)[C@@]2(C)C3=C(CC[C@]12C)[C@@]1(C)CC[C@H](O)C(C)(C)[C@@H]1CC3)C(C)C for me?
4.93

Repeat for the following molecule: C=C1C(=O)O[C@H]2/C=C(\C)CC3C=C(CC/C=C(\C)CC[C@H]12)C(=O)O3 (some centres unmarked)
4.67
